// provenance: patent US20260216164A1

- target system: IKZF2 (Helios) (Homo sapiens, UniProt Q96SW2+Q9UKS7)
- Sequence (Q9UKS7 whole entry): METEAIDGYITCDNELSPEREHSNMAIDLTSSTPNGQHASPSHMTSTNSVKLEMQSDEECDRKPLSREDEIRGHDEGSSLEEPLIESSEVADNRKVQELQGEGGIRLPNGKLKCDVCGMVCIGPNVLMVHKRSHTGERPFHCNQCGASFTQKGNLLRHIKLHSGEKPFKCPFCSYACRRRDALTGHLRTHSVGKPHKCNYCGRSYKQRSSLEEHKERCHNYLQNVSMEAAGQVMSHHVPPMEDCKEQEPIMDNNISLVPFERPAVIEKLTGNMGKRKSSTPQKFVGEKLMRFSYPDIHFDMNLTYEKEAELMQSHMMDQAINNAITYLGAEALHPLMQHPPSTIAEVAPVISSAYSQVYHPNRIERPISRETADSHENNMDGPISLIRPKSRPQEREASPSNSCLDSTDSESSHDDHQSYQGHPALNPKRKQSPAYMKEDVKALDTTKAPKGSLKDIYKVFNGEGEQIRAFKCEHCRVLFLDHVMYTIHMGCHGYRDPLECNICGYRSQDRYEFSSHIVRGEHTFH
- Sequence (Q96SW2 whole entry): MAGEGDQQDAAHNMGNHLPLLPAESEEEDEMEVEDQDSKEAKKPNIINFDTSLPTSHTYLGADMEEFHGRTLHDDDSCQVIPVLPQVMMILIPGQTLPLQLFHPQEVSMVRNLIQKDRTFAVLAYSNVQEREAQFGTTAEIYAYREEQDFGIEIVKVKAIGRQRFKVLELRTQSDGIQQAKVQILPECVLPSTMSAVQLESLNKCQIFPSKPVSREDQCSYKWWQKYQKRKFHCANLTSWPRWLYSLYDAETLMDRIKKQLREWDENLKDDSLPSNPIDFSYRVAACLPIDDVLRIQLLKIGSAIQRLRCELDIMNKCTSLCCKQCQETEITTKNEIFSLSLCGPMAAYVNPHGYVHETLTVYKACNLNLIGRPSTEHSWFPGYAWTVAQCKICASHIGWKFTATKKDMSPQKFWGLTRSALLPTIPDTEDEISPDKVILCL
- Sequence (Q16531 whole entry partner): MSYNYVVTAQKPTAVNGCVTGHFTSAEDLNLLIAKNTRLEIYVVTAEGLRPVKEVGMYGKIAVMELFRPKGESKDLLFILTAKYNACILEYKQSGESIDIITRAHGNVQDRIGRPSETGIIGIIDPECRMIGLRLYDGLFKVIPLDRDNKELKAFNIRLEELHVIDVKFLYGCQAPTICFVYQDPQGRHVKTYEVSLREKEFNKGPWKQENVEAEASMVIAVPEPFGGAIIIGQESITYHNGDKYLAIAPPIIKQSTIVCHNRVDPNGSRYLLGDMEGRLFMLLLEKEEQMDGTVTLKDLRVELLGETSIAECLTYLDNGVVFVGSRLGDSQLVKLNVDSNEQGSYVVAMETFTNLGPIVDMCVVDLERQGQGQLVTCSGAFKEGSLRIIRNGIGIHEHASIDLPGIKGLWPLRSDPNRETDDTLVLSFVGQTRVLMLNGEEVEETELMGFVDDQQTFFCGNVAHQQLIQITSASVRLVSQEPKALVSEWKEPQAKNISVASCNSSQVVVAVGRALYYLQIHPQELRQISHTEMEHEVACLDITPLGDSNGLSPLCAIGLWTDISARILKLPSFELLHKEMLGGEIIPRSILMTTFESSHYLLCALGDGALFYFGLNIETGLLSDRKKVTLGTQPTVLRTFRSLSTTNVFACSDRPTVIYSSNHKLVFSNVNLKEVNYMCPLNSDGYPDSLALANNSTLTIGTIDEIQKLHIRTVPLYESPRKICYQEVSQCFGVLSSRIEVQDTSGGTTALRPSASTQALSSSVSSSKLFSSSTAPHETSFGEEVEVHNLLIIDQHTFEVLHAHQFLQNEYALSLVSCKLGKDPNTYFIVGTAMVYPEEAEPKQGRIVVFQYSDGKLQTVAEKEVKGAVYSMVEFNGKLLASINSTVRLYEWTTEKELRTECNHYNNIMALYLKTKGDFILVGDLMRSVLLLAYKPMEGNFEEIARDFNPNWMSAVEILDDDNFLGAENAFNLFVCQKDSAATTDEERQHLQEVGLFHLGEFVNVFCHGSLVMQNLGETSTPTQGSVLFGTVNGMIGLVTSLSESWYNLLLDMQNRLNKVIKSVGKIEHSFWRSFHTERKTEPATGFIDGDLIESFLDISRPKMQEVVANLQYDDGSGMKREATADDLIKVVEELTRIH
- experiment description: Screening of DC50 (nM) and Dmax (%) using WB-IKZF2 cell line (Western blot)
- Assay type: cell-based
- Parameters: endogenous in cells
- protocol conditions: 6 hours
- Procedure: Experimental Example 2. Screening of DC50 (nM) and Dmax (%) Using WB-IKZF2 Cell Line Candidate degraders were serially diluted and treated in cells cultured in complete medium, followed by incubation for 6 hours at 37° C. in a CO2 incubator. […] The isolated proteins were quantified using the Bradford assay (Bio-Rad, 5000006). […] The obtained images were quantified using the ImageJ software.
readout name: Dmax (%)

Cc1c(C(=O)N2CCC(c3ccc4c(c3F)CN(C3CCC(=O)NC3=O)C4=O)CC2)[nH]c2cc(Cl)c(C#N)cc12 (stereo not drawn)	92
Cc1c(C(=O)N2CCC(c3ccc4c(c3F)CN(C3CCC(=O)NC3=O)C4=O)CC2)[nH]c2cc(C#N)ccc12 (stereo not drawn)	100
Cc1c(C(=O)N2CCC(c3cc4c(cc3F)C(=O)N(C3CCC(=O)NC3=O)C4)CC2)[nH]c2cc(Cl)ccc12 (stereo not drawn)	100
